src = PubChem BioAssay (NCI)

- testDetails: NCI Yeast Anticancer Drug Screen. Data for the rad50 strain (AID 155);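 also: 0% = growth of vehicle-only cultures of the same strain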
- conditionContext: S. cerevisiae rad50 strain growth inhibition; at 50.0 µM; active compounds read high
About 79,000 compounds went through this panel and 15% of them were active in at least one assay; those are over-represented in the sample as a whole.

{"columns": ["molecule", "growth inhibition / %"],
 "data": [
  ["OCC(c1ccccc1)[P+](c1ccccc1)(c1ccccc1)c1ccccc1 (stereo not drawn)", 79.2],
  ["CCCCCCCCCCCC(=O)OCC1OC(OC)C(NC(=O)N(CCCl)N=O)C(O)C1O (stereo not drawn)", 79.9],
  ["NC(=O)N/N=C1/CC2CCCCC2c2ccccc21 (stereo not drawn)", 67.8],
  ["O=Cc1c(Cn2ccnc2)c2cc([N+](=O)[O-])ccc2n1Cc1ccccc1", 62.5],
  ["c1ccc2c(c1)OCC(CNCCNCC1COc3ccccc3O1)O2 (stereo not drawn)", 72],
  ["C1=C(c2c(-c3ccccc3)[nH]c3ccccc23)Cc2ccccc21", 12.6],
  ["Nc1c2c(=O)[nH]c(=O)c2c(N)c2c(=O)c3ccccc3c(=O)c12", 78.2],
  ["CN(C)CCN(C)N=Nc1c(-c2ccc(Cl)cc2)n[nH]c1C(F)(F)F", 98.8],
  ["CCNC1(C2c3ccccc3-c3ccccc32)c2ccccc2-c2ccccc21", 20],
  ["Cc1ccc(C(=O)OCCN2CCN(c3ccccc3)CC2)c([N+](=O)[O-])c1OCc1ccccc1", 87],
  ["O=C(Nc1cccc2ccccc12)OCC1CCc2ccccc2C1 (stereo not drawn)", 12.9],
  ["CCCN(CCC)CCNc1ccc(C)c2sc3ccccc3c(=O)c12", 99.7],
  ["CN(C)CCC(=O)c1ccc2c(ccc3ccccc32)c1", 69.7],
  ["Nc1ccc(O)c2ccccc12", 85.5],
  ["Oc1cc2ccccc2cc1O", 95.5],
  ["C/C(=N\\NC(=S)Nc1ccc(C(=O)O)cc1C)c1ccc2ccccc2n1", 86.2],
  ["CC(CN(C)C)C(=O)/C=C/c1ccc(C(C)C)cc1 (stereo not drawn)", 93.2],
  ["CC(C)C1=CC23CCC4C(C)(C(=O)O)CCCC4(C)C2CC1C(C(=O)O)C3C(=O)O (stereo not drawn)", 98.4],
  ["CC(NC(=O)OCc1ccccc1)C(=O)NNc1ccccc1Cl (stereo not drawn)", 97.5],
  ["CN(C)c1ccc(-c2c(C#N)c(S)n(NS(=O)(=O)c3ccccc3)c(=O)c2C#N)cc1", 35.4],
  ["O=C(O)C1C(C(=O)O)C2C(=O)C=CC1N2Cc1ccccc1 (stereo not drawn)", 79.8],
  ["CC(=O)Nc1ccc2c(c1)Cc1cccc(F)c1-2", 70.3],
  ["Cc1ccc([N+](=O)[O-])cc1Cl", -4.35]
]}
